Assign INHIBITION to each entry below.
tested on: Plasmodium berghei; test: Screen against P. berghei liver stage (PbLuc), transformed with Luciferase, at 10uM; assay type: functional, HepG2; conditions: tested at 10 uM
Among all 69,000 compounds or so, about 8,600 (12%) showed an effect of 50% or more. This is one part of a sample in which strong results are shown more often than they occur.
Give bare numbers, in %.

Observe how each entry below is paired with its result.
Cc1ccc(C2CCCN(S(=O)(=O)N3CCOCC3)C2)nc1 (centres undefined) = 19.85
CC(C)c1ncc(CNC2(c3ccc(Cl)cc3)CC2)cn1 = -33.4
O=C(NC1CCC1)C1=NOC2(CCN(Cc3ccc(F)cc3)C2)C1 (centres undefined) = 64.9
COc1cccc(C(=O)N2CCN(Cc3nc(C(C)C)no3)CC2)c1 = 43.3
CC(C)OC(=O)N1C[C@@H]2CC[C@H]1CN(C(=O)c1ccccn1)C2 = -26.4
CS(=O)(=O)c1ccc(NCCC2CCCO2)c(S(C)(=O)=O)c1 (centres undefined) = 15.2
CS(=O)(=O)Cc1ccc(Cl)c(NCc2noc(C3CC3)n2)c1 = 57.8
CCCc1cncnc1N1CCC(NCc2ccc(O)cc2)CC1 = 29.9

Quick one: give me INHIBITION for each item below, same order please.
1. Cc1ccc(C)c(CC(=O)NC2(C#N)CCOCC2)c1
2. O=C(NCC1CC1)C1=NOC2(CCN(S(=O)(=O)c3ccc(F)cc3)C2)C1 (centres undefined)

stdout:
1. 20.4
2. -19.1

Quick one: give me INHIBITION for each item below, same order please.
1. O=C(c1ccccn1)N1CCc2ncc(Cn3cccn3)n2CC1
2. COc1cccc(COCC(=O)N2CCCCCC2)c1
3. Cc1cc(NCc2ccccc2)nc2[nH]nc(N)c12
4. CCCc1nc(CNc2cc(CS(C)(=O)=O)ccc2Cl)no1
5. O=C(NCCSc1ccccc1)[C@H]1CNC[C@H](C(=O)N2CCOCC2)C1
6. Cc1cc(NCc2ccco2)nc2[nH]nc(N)c12
7. COc1c(C)cnc(CN2CCOC(Cn3cncn3)C2)c1C (centres undefined)

stdout:
1: -14.2; 2: -51.075; 3: -0.232; 4: 52.2; 5: 11.2; 6: 61; 7: 2.97

Quick one: give me INHIBITION for each item below, same order please.
1. Cc1cc(N2CCOC(C)(C(=O)N(C)C)C2)ncn1 (centres undefined)
2. N#Cc1cccc(C(=O)N2CC[C@H]3[C@H]2CCN3CC2CCOCC2)c1
3. COc1ccc(C)cc1CN(C)CC(N)=O
4. CN1CCN(Cc2cnc3n2CCN(CCc2ccccc2)C3)CC1
5. CCCc1cncnc1N1CCC(NCc2cc3ccccc3[nH]2)CC1

stdout:
1: 37.8; 2: 34.6; 3: -33.4; 4: -18.2; 5: 88.2

Quick one: give me INHIBITION for each item below, same order please.
1. O=S1(=O)NC(=CSCc2ccccc2)Nc2ccccc21
2. O=C(c1cccc(F)c1)N1CC[C@H]2[C@H]1CCN2CC1CCOCC1

stdout:
1: 38; 2: 59

* * *

system: Plasmodium berghei; test: Screen against P. berghei liver stage (PbLuc), transformed with Luciferase, at 10uM; assay type: functional, HepG2; conditions: tested at 10 uM
Screen size: about 69,000 compounds; about 8,600 (12%) showed an effect of 50% or more. The sample holds strong results, similar compounds and a random draw of the others, so the mix is not that of the screen.
Assign INHIBITION to each entry below.
Include the unit after the number when you answer.

Cc1ccc(C(=O)NC2CCCN(C)C2)c(=O)[nH]1 (configuration not stated) = 8.51%
Cn1nnc2c1CCN(CC1CC1)C2COCc1ccccc1 (configuration not stated) = 39.8%
CO[C@H]1CN(C(=O)c2ccc(-c3ccccc3)[nH]2)CC[C@H]1N = -22.4%
Cn1nnc2c1CCN(S(C)(=O)=O)C2COCC1CC1 (configuration not stated) = 57.1%
C1CN(CC2CC2)C(COCC2CC2)c2nnn(CC3CC3)c21 (configuration not stated) = 15.6%
Cc1ccc(C(=O)NC2CCCN(CC(N)=O)C2)c(=O)[nH]1 (configuration not stated) = 9.63%
C1CC(CN2CCc3c(nnn3CC3CC3)C2COCC2CC2)C1 (configuration not stated) = 43.3%
CCN1CCCC(NC(=O)c2ccc(C)[nH]c2=O)C1 (configuration not stated) = 55.5%

Quick one: give me INHIBITION for each item below, same order please.
1. Cn1nnc2c1CCN(Cc1ccncc1)C2COCc1ccccc1 (configuration not stated)
2. Cn1nnc2c1CCN(CC1CC1)C2COCC1CC1 (configuration not stated)
3. CC(C)(C)c1n[nH]c(C2CN(C(=O)CCc3ccco3)CCO2)n1 (configuration not stated)
4. CCn1nnc2c1CCN(S(C)(=O)=O)C2COCc1ccccc1 (configuration not stated)

stdout:
1. 17.2%
2. 38.5%
3. 18.15%
4. -3.51%

* * *

test system: Plasmodium berghei; test: Screen against P. berghei liver stage (PbLuc), transformed with Luciferase, at 10uM; format: functional, HepG2; details: tested at 10 uM
Screen size: about 69,000 compounds; about 8,600 (12%) showed an effect of 50% or more. The list comes from a sample in which strong results are over-represented; it also holds close analogues and randomly drawn compounds.
Experimental Endpoint: INHIBITION (%)
Give bare numbers, in %.

Cc1cnn(CC2CCCCN2C(=O)c2cc(Cl)c[nH]2)c1 (stereo unspecified) = 40.3
CCc1cc(NC(=O)C2CCCN(C(=O)c3ccncc3)C2)[nH]n1 (stereo unspecified) = 8.86
O=C(NCc1ccco1)[C@H]1C[C@H]2OCC[C@H]2N(C(=O)c2ccncc2)C1 = -15.5
CN(Cc1ncnn1C1Cc2ccccc2C1)C1CCS(=O)(=O)C1 (stereo unspecified) = 25.4
CCn1ncc(CN2CCC(c3ncc(Cl)cc3S(C)(=O)=O)CC2)c1C = 20.57
COc1ccccc1C(C)(C)NC(=O)c1ccc(F)c(NC(C)=O)c1 = -47
Cc1nc(C2CCCN2CC(=O)NCCc2ccc(Cl)cc2)no1 (stereo unspecified) = 44.1
COCCC1(CNC(=O)Nc2ccc(-n3ccnn3)cc2)CCC1 = -12.2

Quick one: give me INHIBITION for each item below, same order please.
1. O=C(NC[C@H]1OC[C@@H]2CN(Cc3ccco3)CC[C@@H]21)c1cscn1
2. CCn1cc(C(=O)NCCN2CCCc3ccccc32)c(C)n1
3. Fc1ccc(-c2nc(CN3CCCCC3Cn3cncn3)co2)cc1 (stereo unspecified)

stdout:
[-72, 12.9, -0.113]

* * *

Assign INHIBITION to each entry below.
system: Plasmodium berghei; assay: Screen against P. berghei liver stage (PbLuc), transformed with Luciferase, at 10uM; type: functional, HepG2; conditions: tested at 10 uM
Out of some 69,000 compounds screened, about 8,600 (12%) showed an effect of 50% or more. Shown is part of a subset that was picked to be rich in strong results.
Give bare numbers, in %.

Cc1sc2ncnc(N3CCCC3Cn3cccn3)c2c1C (configuration not stated) = -53
CN(C)C(=O)N1CCc2c(COCC3CC3)cncc2C1 = 59
N#CC1CCCN(C(=O)Cn2ncc(N3CCCC3)cc2=O)C1 (configuration not stated) = 44.9
Cc1sc2ncnc(N3CCC(N(C)Cc4cnn(C)c4)CC3)c2c1C = 61.2

Quick one: give me INHIBITION for each item below, same order please.
1. Cc1cc(S(=O)(=O)NCC(O)c2sccc2C)ccc1F (configuration not stated)
2. Cc1cc(C)n(C2CCCN(C(=O)c3ccc(N(C)C)nn3)C2)n1 (configuration not stated)
3. N#Cc1ccc(C(=O)N2CCc3c(COCC4CC4)cncc3C2)cc1
4. O=C(CO)N1C[C@@H]2CC[C@H]1CN(C1Cc3ccccc3C1)C2

stdout:
1: 13.9; 2: 13.2; 3: 43; 4: 25.4

* * *

Assign INHIBITION to each entry below.
test system: Plasmodium berghei; test: Screen against P. berghei liver stage (PbLuc), transformed with Luciferase, at 10uM; assay type: functional, HepG2; conditions: tested at 10 uM
Hit rate of the full screen: of about 69,000 compounds, about 8,600 (12%) showed an effect of 50% or more. The sample holds strong results, similar compounds and a random draw of the others, so the mix is not that of the screen.
Give bare numbers, in %.

COC(=O)c1ccc(N2CCN(C(=O)C3CC3)C(C)C2)cc1 (configuration not stated) = 31.6
Cc1ccc(CN2C[C@@H]3CCCO[C@@H]3[C@H](NC(=O)CC3CC3)C2)s1 = 49.3
O=C1NC(c2cnc(C3CCC3)s2)Nc2ccccc21 (configuration not stated) = -90.1
Cc1ccc(CNC(c2ccc(F)cc2)c2nccn2C)o1 (configuration not stated) = 52.6
c1ccc(-c2cc(CN3C[C@H]4CC[C@H]3C4)on2)cc1 = -0.27
Cc1ccc(C(=O)N(C)Cc2ccc(Br)s2)c(=O)[nH]1 = 37.4

Quick one: give me INHIBITION for each item below, same order please.
1. COc1c(CNC(c2ccccc2)c2nccn2C)c(C)nn1C (configuration not stated)
2. COc1cc(CNC(c2ccccc2)c2nccn2C)cc(OC)c1 (configuration not stated)
3. O=C(N[C@@H]1CN(Cc2ccccc2)C[C@@H]2CCCO[C@@H]21)C1CC1
4. COC(=O)c1ccc(N2CCN(C(=O)c3cccnc3)C(C)C2)cc1 (configuration not stated)
5. Cc1occc1C(=O)N1C[C@@H]2CCCO[C@@H]2[C@H](NC(=O)CC2CC2)C1
6. COC(=O)c1ccc(N2CCN(C(=O)c3ccco3)C(C)C2)cc1 (configuration not stated)
7. Cc1ccc(CNC(c2cccc(F)c2)c2nccn2C)o1 (configuration not stated)
8. CC(C)Oc1ccc(C(=O)N2CCC(Nc3cccnn3)CC2)cn1

stdout:
[39.4, -76.15, 6.38, 81.1, 62.9, -34, 24.2, -73.2]
